# Test system: NOMO1
# Method: cell viability relative to DMSO control; higher = less cytotoxic
# Measurement Parameters: RPMI 5 mM glucose + 10% dialyzed FBS; 48 h; 0.00702 µM
For each of the molecules below, state its cell viability.
Number only, in %; omit the unit.

Exam item: What reported cell viability corresponds to `O=C(O)c1ccc(O)c2ncc(N3CCOCC3)cc12` on NOMO1?
Marked response: 111

Exam item: And then `Nc1n[nH]c2nnc(-c3c(-c4ccccc4)nn4ccccc34)cc12` , what is it?
Marked response: 134

Exam item: And then NC1=NC(=O)N2CC12 (configuration not stated) , what is it?
Marked response: 87.8

Exam item: And then `CCCCc1ccc2[nH]c(NC(=O)OC)nc2c1` , what is it?
Marked response: 101

Exam item: And then `C=CC(=O)Nc1cc2c(Nc3ccc(F)c(Cl)c3)ncnc2cc1C#CC(C)(C)N1CCN(C)CC1` , what is it?
Marked response: 107

Exam item: And then Cc1c(N)nc([C@H](CC(N)=O)NC[C@@H](N)C(N)=O)nc1C(=O)N[C@H](C(=O)N[C@@H](C)[C@H](O)[C@@H](C)C(=O)N[C@@H](C(=O)NCCc1nc(-c2nc(C(=O)NCCC[S+](C)C)cs2)cs1)[C@@H](C)O)C(O[C@H]1O[C@H](CO)[C@H](O)[C@@H](O)[C@H]1O[C@H]1O[C@H](CO)[C@@H](O)[C@H](OC(N)=O)[C@@H]1O)c1c[nH]cn1 (some centres not stated) , what is it?
Marked response: 114

Exam item: And then CCC(CCCC)COC(=O)C(\C#N)=C(\c1ccccc1)c2ccccc2 (configuration not stated) , what is it?
Marked response: 84.4

Ref: the supplement of paper PMC11451515
